Where do these numbers come from? They come from ChEMBL document CHEMBL1944580.

Test system: Staphylococcus aureus
test name: Antibacterial activity against Staphylococcus aureus ATCC 6538 treated for 24 hrs followed by sub-cultivated for 72 hrs by micro dilution method
Assay type: functional

| mol smiles | tested target | MBC, µM |
| --- | --- | --- |
| CCCCNc1nnc(Cc2cc(OC)c(OC)cc2S(=O)(=O)N(C)C)s1 | Staphylococcus aureus | 480 |
| COc1cc(Cc2nnc(NC(C)C)s2)c(S(=O)(=O)N(C)C)cc1OC | Staphylococcus aureus | 460 |
| CCCn1c(Cc2cc(OC)c(OC)cc2S(=O)(=O)N(C)C)n[nH]c1=O | Staphylococcus aureus | 390 |
| CCCCn1c(Cc2cc(OC)c(OC)cc2S(=O)(=O)N(C)C)n[nH]c1=O | Staphylococcus aureus | 500 |
| COc1cc(Cc2n[nH]c(=S)n2C)c(S(=O)(=O)N(C)C)cc1OC | Staphylococcus aureus | 540 |

====

Tested on: Fulvia fulva
test name: Antifungal activity against Fulvia fulva treated for 72 hrs followed by sub-cultivated for 5 days by serial dilution method
Format: functional
Mark each entry yes if its MFC sits below 200 µM, and no for all others.

| molecule | label class |
| --- | --- |
| CNc1nnc(Cc2cc(OC)c(OC)cc2S(=O)(=O)N(C)C)o1 | no |
| COc1cc(Cc2n[nH]c(=S)n2C(C)(C)C)c(S(=O)(=O)N(C)C)cc1OC | no |
| COc1cc(Cc2nnc(NC(C)C)s2)c(S(=O)(=O)N(C)C)cc1OC | no |
| CNc1nnc(Cc2cc(OC)c(OC)cc2S(=O)(=O)N(C)C)s1 | yes |
| CCn1c(Cc2cc(OC)c(OC)cc2S(=O)(=O)N(C)C)n[nH]c1=S | yes |
| CCCn1c(Cc2cc(OC)c(OC)cc2S(=O)(=O)N(C)C)n[nH]c1=S | yes |
| COc1cc(Cc2n[nH]c(=O)n2C(C)(C)C)c(S(=O)(=O)N(C)C)cc1OC | no |
| CCCNc1nnc(Cc2cc(OC)c(OC)cc2S(=O)(=O)N(C)C)s1 | yes |
| c1ccc(-c2ccc(C(c3ccccc3)n3ccnc3)cc2)cc1 (stereo not given) [BIFONAZOLE] | no |
| COc1cc(Cc2n[nH]c(=O)n2C(C)C)c(S(=O)(=O)N(C)C)cc1OC | no |

====

Tested on: Staphylococcus aureus
test name: Antibacterial activity against Staphylococcus aureus ATCC 6538 after 24 hrs by micro dilution method
Format: functional
setup conditions: ATCC 6538, 24 h
This section presents molecules with their documented MIC values.

| mol smiles | MIC, µM |
| --- | --- |
| CCCCn1c(Cc2cc(OC)c(OC)cc2S(=O)(=O)N(C)C)n[nH]c1=S | 240 |
| CCCCNc1nnc(Cc2cc(OC)c(OC)cc2S(=O)(=O)N(C)C)s1 | 480 |
| CCn1c(Cc2cc(OC)c(OC)cc2S(=O)(=O)N(C)C)n[nH]c1=O | 270 |

====

Tested on: Fulvia fulva
test name: Antifungal activity against Fulvia fulva treated for 72 hrs followed by sub-cultivated for 5 days by serial dilution method
Type: functional
This section presents compounds with their documented MFC values.
attribute measured: MFC

| mol smiles | attribute measured | assay value |
| --- | --- | --- |
| CCCCNc1nnc(Cc2cc(OC)c(OC)cc2S(=O)(=O)N(C)C)s1 | MFC | 120 µM |
| COc1cc(Cc2n[nH]c(=S)n2C(C)C)c(S(=O)(=O)N(C)C)cc1OC | MFC | 250 µM |
| CCCCNc1nnc(Cc2cc(OC)c(OC)cc2S(=O)(=O)N(C)C)o1 | MFC | 250 µM |
| CCn1c(Cc2cc(OC)c(OC)cc2S(=O)(=O)N(C)C)n[nH]c1=O | MFC | 270 µM |
| CCNc1nnc(Cc2cc(OC)c(OC)cc2S(=O)(=O)N(C)C)o1 | MFC | 270 µM |

====

Test system: Trichoderma viride
test name: Antifungal activity against Trichoderma viride IAM 5061 treated for 72 hrs followed by sub-cultivated for 5 days by serial dilution method
Type: functional
This section presents compounds with their documented MFC values.
attribute measured: MFC (µM)

| mol smiles | tested target | attribute measured | assay value |
| --- | --- | --- | --- |
| CCCCn1c(Cc2cc(OC)c(OC)cc2S(=O)(=O)N(C)C)n[nH]c1=S | Trichoderma viride | MFC | 120 |
| COc1cc(Cc2n[nH]c(=S)n2C(C)C)c(S(=O)(=O)N(C)C)cc1OC | Trichoderma viride | MFC | 30 |
| CCCn1c(Cc2cc(OC)c(OC)cc2S(=O)(=O)N(C)C)n[nH]c1=S | Trichoderma viride | MFC | 130 |
